- systemName: Renin (Homo sapiens)
- Sequence (P00797 whole entry): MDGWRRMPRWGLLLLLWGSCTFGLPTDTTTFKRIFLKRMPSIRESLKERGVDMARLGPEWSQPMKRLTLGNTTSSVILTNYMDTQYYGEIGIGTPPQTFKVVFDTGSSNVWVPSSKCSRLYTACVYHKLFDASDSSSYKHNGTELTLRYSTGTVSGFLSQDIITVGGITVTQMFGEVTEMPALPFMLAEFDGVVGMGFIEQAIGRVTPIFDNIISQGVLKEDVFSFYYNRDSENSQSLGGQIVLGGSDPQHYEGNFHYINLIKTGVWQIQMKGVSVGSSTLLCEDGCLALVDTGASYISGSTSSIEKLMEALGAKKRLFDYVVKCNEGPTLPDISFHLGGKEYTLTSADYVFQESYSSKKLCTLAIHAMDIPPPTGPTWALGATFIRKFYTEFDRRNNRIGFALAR
- methodDescription: Inhibition of trypsin-activated recombinant human Fc-tagged renin expressed in BacMam virus infected HEK-F cells using Arg-Glu-Lys(5-Fam)-Ile-His-Pro-Phe-His-Leu-Val-IleHis-Thr-Lys(5,6 Tamra)-Arg-CONH2 as substrate measured after 2 hrs
pIC50: −log10 of the molar value.
metric: pIC50

compound="CCc1cccc(-c2c(F)cccc2C(O)(CCCNC(=O)OC)[C@@H]2CCCN(C(=O)CC[C@H](N)C(=O)OCc3ccccc3)C2)c1 (some centres not stated)" metric=pIC50 quantitativeresult=7.80
compound="CCc1cccc(-c2c(F)cccc2C(O)(CCCNC(=O)OC)[C@@H]2CCCN(C(=O)CCC3CCCCN3)C2)c1 (some centres not stated)" metric=pIC50 quantitativeresult=6.90
compound="CCc1cccc(-c2c(F)cccc2C(O)(CCCNC(=O)OC)[C@@H]2CCCN(C(=O)[C@@H]3CC[C@H](N)C3)C2)c1 (some centres not stated)" metric=pIC50 quantitativeresult=9.22

P: CCc1cccc(-c2c(F)cccc2C(O)(CCCNC(=O)OC)[C@@H]2CCCN(C(=O)CC3CCNCC3)C2)c1 (some centres not stated)
Q: CCc1cccc(-c2c(F)cccc2C(O)(CCCNC(=O)OC)[C@@H]2CCCN(C(=O)C3CCCNC3)C2)c1 (some centres not stated)
Lookup: Which entry has a larger number for pIC50, P or Q ? Return value: the label identifying the chosen record.
Found: P
(P: 8.80, Q: 6.49)

A: CCc1cccc(-c2c(F)cccc2C(O)(CCCNC(=O)OC)[C@@H]2CCCN(C(=O)CC(O)CN)C2)c1 (some centres not stated)
B: CCc1cccc(-c2c(F)cccc2C(O)(CCCNC(=O)OC)[C@@H]2CCCN(C(=O)CCC3CCNCC3)C2)c1 (some centres not stated)
C: CCc1cccc(-c2c(Cl)cccc2C(O)(CCCNC(=O)OC)[C@@H]2CCCN(C(=O)[C@@H]3CC[C@H](NC)C3)C2)c1 (some centres not stated)
D: CCc1cccc(-c2c(F)cccc2C(O)(CCCNC(=O)OC)[C@@H]2CCCN(C(=O)C3CCCCN3)C2)c1 (some centres not stated)
Lookup: Ordering: ascending pIC50. Lab note: record answer as labels in requested order.
Found: D, B, A, C

1: CCc1cccc(-c2c(F)cccc2C(O)(CCCNC(=O)OC)[C@@H]2CCCN(C(=O)CC[C@H](N)CO)C2)c1 (some centres not stated)
2: CCc1cccc(-c2c(F)cccc2C(O)(CCCNC(=O)OC)[C@@H]2CCCN(C(=O)C[C@H](O)CN)C2)c1 (some centres not stated)
3: CCc1cccc(-c2c(F)cccc2C(O)(CCCNC(=O)OC)[C@@H]2CCCN(C(=O)CCCNCCO)C2)c1 (some centres not stated)
Lookup: Please give the order of these compounds when sorted by pIC50, largest value leading. The reply should contain the labels ordered as requested.
Found: 2, 3, 1

---

The following compounds have recorded IC50 on UniProtKB P08684.
Sequence (P08684 whole entry): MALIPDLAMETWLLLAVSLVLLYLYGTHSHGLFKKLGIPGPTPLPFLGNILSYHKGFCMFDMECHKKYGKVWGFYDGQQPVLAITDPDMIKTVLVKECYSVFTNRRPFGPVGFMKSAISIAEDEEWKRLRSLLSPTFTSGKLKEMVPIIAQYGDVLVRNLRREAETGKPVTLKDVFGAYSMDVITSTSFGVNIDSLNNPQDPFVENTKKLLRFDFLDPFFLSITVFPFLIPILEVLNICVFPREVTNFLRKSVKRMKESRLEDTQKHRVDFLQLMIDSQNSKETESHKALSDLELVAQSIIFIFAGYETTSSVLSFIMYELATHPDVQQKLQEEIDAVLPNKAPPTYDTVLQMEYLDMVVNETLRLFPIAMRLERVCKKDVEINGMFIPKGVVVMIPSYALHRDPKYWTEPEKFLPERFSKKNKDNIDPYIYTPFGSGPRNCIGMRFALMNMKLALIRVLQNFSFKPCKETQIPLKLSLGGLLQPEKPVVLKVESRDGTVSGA
metric: IC50 (nM)

Some solved entries appear below for comparison.
compound="CCc1cccc(-c2c(Cl)cccc2C(O)(CCCNC(=O)OC)[C@@H]2CCCN(C(=O)[C@H]3C[C@@H](N)[C@@H](O)C3)C2)c1 (stereo partly specified)" quantitativeresult=250
compound="CCc1cccc(-c2c(F)cccc2C(O)(CCCNC(=O)OC)[C@@H]2CCCN(C(=O)CCCN)C2)c1 (stereo partly specified)" quantitativeresult=240
compound="CCc1cccc(-c2c(Cl)cccc2C(O)(CCCNC(=O)OC)[C@@H]2CCCN(C(=O)[C@@H]3CC[C@H](NC)C3)C2)c1 (stereo partly specified)" quantitativeresult=49
compound="CCc1cccc(-c2c(F)cccc2C(O)(CCCNC(=O)OC)[C@@H]2CCCN(C(=O)[C@@H]3CC[C@H](N)C3)C2)c1 (stereo partly specified)" quantitativeresult=90

a: CCc1cccc(-c2c(F)cccc2C(O)(CCCNC(=O)OC)[C@@H]2CCCN(C(=O)CC(O)CNC)C2)c1 (stereo partly specified)
b: CCc1cccc(-c2c(F)cccc2C(O)(CCCNC(=O)OC)[C@@H]2CCCN(C(=O)CC(O)CN)C2)c1 (stereo partly specified)
Lookup: Short answer wanted: higher IC50, a or b ? Field: selected label. Fill in the label of the entry you choose.
Found: a
